From: the Human Domainome abundance scans (Beltran et al. 2025)

A collection of variants and their measured abundance fitness
B1: POU domain, class 6, transcription factor 2, residues 609 to 663; numbered along this chain, P78424 (parent)
chain: KRRTSFTPQALEILNAHFEKNTHPSGQEMTEIAEKLNYDREVVRVWFCNKRQALK

# Variants of: B1
# procedure-text: abundance fitness (aPCA) (normalised: wild type 0, dead -1); higher = more abundant; growth selection in yeast, the domain comes from the species named
# condition-details: Homo sapiens

{"monomer-sequence": "KRRTSFTPQALEILNQHFEKNTHPSGQEMTEIAEKLNYDREVVRVWFCNKRQALK", "abundance fitness": 0.019}
{"monomer-sequence": "KRRTSFTPQALEILNAHFEKNTHPSGQEMTEIAEKLNYDREVVRVWFCNKRQQLK", "abundance fitness": 0.042}
{"monomer-sequence": "KRRTSFTPQALEIKNAHFEKNTHPSGQEMTEIAEKLNYDREVVRVWFCNKRQALK", "abundance fitness": -0.874}
{"monomer-sequence": "KRRTSFTPQALEILNAHFEKNTHPSGQEMTEIAEKLNYDRCVVRVWFCNKRQALK", "abundance fitness": -0.119}
{"monomer-sequence": "KRRTSFTPQALEILNAHFEKNTHPSGQEMTEIMEKLNYDREVVRVWFCNKRQALK", "abundance fitness": -0.477}
{"monomer-sequence": "KRRISFTPQALEILNAHFEKNTHPSGQEMTEIAEKLNYDREVVRVWFCNKRQALK", "abundance fitness": -0.364}
{"monomer-sequence": "KRRTSFTPWALEILNAHFEKNTHPSGQEMTEIAEKLNYDREVVRVWFCNKRQALK", "abundance fitness": -0.184}
{"monomer-sequence": "KRRTSFLPQALEILNAHFEKNTHPSGQEMTEIAEKLNYDREVVRVWFCNKRQALK", "abundance fitness": -0.288}
{"monomer-sequence": "KRRTSFTPQALEILNAHFEKNTHPSGQEMTEIAEKLNYDREVVRVWFCNKKQALK", "abundance fitness": -0.026}
{"monomer-sequence": "KRRTSFTPQALEILNAHFEKNTHPSGQEMTEIAEKLNYDREVVRVWFCNKRPALK", "abundance fitness": -0.218}
{"monomer-sequence": "KRRTSFTPQALEILNAHFEKNTHPSGQEMTEIAERLNYDREVVRVWFCNKRQALK", "abundance fitness": -0.053}
{"monomer-sequence": "KRNTSFTPQALEILNAHFEKNTHPSGQEMTEIAEKLNYDREVVRVWFCNKRQALK", "abundance fitness": 0.208}
{"monomer-sequence": "KRRTSFTPQALEILNAHFEHNTHPSGQEMTEIAEKLNYDREVVRVWFCNKRQALK", "abundance fitness": -0.239}
{"monomer-sequence": "KRRTSFTPQALEILNAHFEKNTNPSGQEMTEIAEKLNYDREVVRVWFCNKRQALK", "abundance fitness": -0.027}
{"monomer-sequence": "KRRTSFTPQALEILNAHFEKNTHPSGQEMTEIAELLNYDREVVRVWFCNKRQALK", "abundance fitness": -0.01}
{"monomer-sequence": "KRRTSFTPQALEILNAHFEKNTHPSGQEMTEIAEKLNYDREVDRVWFCNKRQALK", "abundance fitness": -0.764}
{"monomer-sequence": "KRRTSFTPQALEILNAHFEKNTHPSGQEMTEIAEKLNYDREVVWVWFCNKRQALK", "abundance fitness": 0.037}
{"monomer-sequence": "KRRTSFTPQALEILNAHFEKNTHPSGQEMTEIAEKLNYDREVVRVWFCMKRQALK", "abundance fitness": -0.177}
{"monomer-sequence": "KRRTSFTPQALEILNAHFEKNTHPSGQEMTEIAEKLNYDREVVRFWFCNKRQALK", "abundance fitness": -0.243}
{"monomer-sequence": "KRRTSFTPQALEILNAHFEKNTHPSGQEMTEIAEKLNYDREVVRVWFCNKRQLLK", "abundance fitness": -0.086}
{"monomer-sequence": "KRRTSFTPQALEILNAHFEKNTHESGQEMTEIAEKLNYDREVVRVWFCNKRQALK", "abundance fitness": -0.978}
{"monomer-sequence": "KRRTSFTPQALEILNAHFEKNRHPSGQEMTEIAEKLNYDREVVRVWFCNKRQALK", "abundance fitness": 0.005}
{"monomer-sequence": "KRRTSFTPQALEILNAHFEKNTHPSGQEMTEIAEKLNYVREVVRVWFCNKRQALK", "abundance fitness": -0.418}
{"monomer-sequence": "KRRTSFTPQVLEILNAHFEKNTHPSGQEMTEIAEKLNYDREVVRVWFCNKRQALK", "abundance fitness": -0.227}
{"monomer-sequence": "KRRTSFTPQALEILNAHFEKNTHPSGQEMTEIARKLNYDREVVRVWFCNKRQALK", "abundance fitness": -0.237}
{"monomer-sequence": "KRRTSFTPQALEILNAHFEKNTHPSGQEMTRIAEKLNYDREVVRVWFCNKRQALK", "abundance fitness": -0.028}
{"monomer-sequence": "KRRTSFTPQALEICNAHFEKNTHPSGQEMTEIAEKLNYDREVVRVWFCNKRQALK", "abundance fitness": -0.734}
{"monomer-sequence": "KRRTSFTPQALEILNAHFEKNTHPSGQEMTEIAEKLNYDREVVRVWFCNKRQNLK", "abundance fitness": 0.046}
{"monomer-sequence": "KRRTSFTPQALEILNAHFEKNTHPSGQEMTEIAEKLNYDREVVRVWGCNKRQALK", "abundance fitness": -0.853}
{"monomer-sequence": "KRRTSFTPQALEILNAHFEKNTHPSGQEMTEIAEKLNYDRWVVRVWFCNKRQALK", "abundance fitness": -0.319}
{"monomer-sequence": "KRRTSFTPQALEILNAHFEKNTHPSGQEMTEIAEKLNYDREVVRRWFCNKRQALK", "abundance fitness": 0.018}
{"monomer-sequence": "KRRTSFTPQALEILNAHFEKNTHPSGQEMTEIAEKLNYDREVPRVWFCNKRQALK", "abundance fitness": -0.938}
{"monomer-sequence": "KRRTSFTFQALEILNAHFEKNTHPSGQEMTEIAEKLNYDREVVRVWFCNKRQALK", "abundance fitness": -0.147}
{"monomer-sequence": "KRPTSFTPQALEILNAHFEKNTHPSGQEMTEIAEKLNYDREVVRVWFCNKRQALK", "abundance fitness": 0.004}
